# credit: PubChem BioAssay

Assay: S. cerevisiae growth modulation with rapamycin, primary screen, strain BY4716, OD600, 96 h (AID 1091); further: test concentration not given here
Details: higher = more signal, called active from +8 up or from −8 down
assayMetric: z-score
Please reply with the value in numeric form only.

compound	assayMetric	readoutNumber
CC(C)C[C@H]1NC(=O)[C@@]23C(=O)N[C@@H](Cc4ccccc4)C2[C@H](C)[C@@]2(C)O[C@H]2C3/C=C/C/C=C\CNC(=O)[C@H](Cc2ccccc2)NC1=O (some centres not stated)	z-score	-0.332
CC(C)C[C@@H]1NC(=O)[C@@H]2C[C@H](C(=O)NCCCCCN)[C@H](c3cccc(OCCO)c3)N2C1=O	z-score	-1.13
COc1ccc([Si](C)(C)[C@H]2[C@H](CC(=O)N3CCC[C@H]3CO)O[C@@]3(C(=O)N(Cc4cccc(N5C(=O)c6cccc7cccc5c67)c4)c4ccccc43)[C@@H]2C)cc1	z-score	-0.15

# input Input O=C1c2ccccc2[C@@]2(Cc3ccccc3N(CC(F)(F)F)C2=O)[C@H](c2ccc(CO)cc2)N1Cc1ccccc1Cl , output reported z-score.
# output -1.62

# input Input CCc1oc(CC[C@@H](CO)NC(=O)NCCn2cc(C3(O)CCCCC3)nn2)c(C(=O)OC)c1C(=O)OC , output reported z-score.
# output -0.874

# input Input O=C1C[C@]2(c3ccc([N+](=O)[O-])cc3)C(=O)N(CCN3CCOCC3)c3cc(CO)ccc3[C@H]2N1C1CCCCC1 , output reported z-score.
# output -1.6

# input Input COc1ccc(C(=O)Nc2ccc(CN3C(=O)[C@@]4(O[C@@H](CC(=O)N5CCC[C@H]5CO)[C@H]([Si](C)(C)c5ccc(OC)cc5)[C@H]4C)c4ccccc43)cc2)cc1 , output reported z-score.
# output -0.436

----------
Assay: small-molecule binders of probe aNOTCH2, primary screen, biochemical, small-molecule microarray, 635/667 nm fluorescence (AID 1121);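 further: score merges feature fluorescence read at 667 nm with its signal to noise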
Details: higher = more signal
assayMetric: composite z-score
Please reply with the value in numeric form only.

Some entries whose results are on file:
compound	assayMetric	readoutNumber
[N-]=[N+]=NCc1ccccc1C[C@]1(C(=O)NCC(O)CO)N=C(c2ccc(OCCCO)cc2)O[C@H]1c1ccccc1 (some centres not stated)	composite z-score	-0.0596
O=C1OCCC/C=C\[C@H]2OC34C=CCN(Cc5ccccc5)C(=O)[C@H]3N(CCCCCCO)C(=O)[C@@H]4C12 (some centres not stated)	composite z-score	-0.141
CN(C)CCCNC(=O)[C@@]1(c2ccc([N+](=O)[O-])cc2)CC(=O)N(C2CCCCC2)[C@@H]1c1ccc(CO)cc1I	composite z-score	-0.124
CN1C(=O)C2C=CC(C(O)C3CC=CCC3)N(NC(=O)OC(C)(C)C)C2C1=O (configuration not stated)	composite z-score	-0.121
CCOC(=O)C[C@H]1[C@H](OC(=O)Cc2ccc3c(c2)OCO3)[C@@H](NC(=O)c2ccc(-c3ccccc3)cc2)c2cc(OCCCO)ccc2N1C(=O)c1ccc2ccccc2n1	composite z-score	-0.182
C=CCOC(=O)[C@H]1[C@@H]2C(=O)O[C@@H](c3ccccc3)[C@@H](c3ccccc3)N2[C@@H](c2ccc(OCCOC(=O)[C@@H]3C[C@@H]4C(=O)N5CCC[C@H]5C(=O)N4[C@@H]3c3cccc(OCCO)c3)cc2)[C@]12C(=O)Nc1ccccc12	composite z-score	0.0087

Continue with the next compound.
# input Input COCCOC(=O)N1C(=O)[C@@]2(c3cc(C#CCNC(N)=O)ccc31)[C@H](C(=O)NC[C@H](O)c1ccccc1)[C@H]1C(=O)O[C@H](c3ccccc3)[C@H](c3ccccc3)N1[C@@H]2c1ccccc1OCCO , output reported composite z-score.
# output 0.0156
